# EXPERIMENTAL_SYSTEM: adenosine A1 receptor (Rattus norvegicus, UniProt P25099)
# Construct: Whole brain minus cerebellum and brainstem from male Long Evans rats
# Sequence (P25099 whole entry): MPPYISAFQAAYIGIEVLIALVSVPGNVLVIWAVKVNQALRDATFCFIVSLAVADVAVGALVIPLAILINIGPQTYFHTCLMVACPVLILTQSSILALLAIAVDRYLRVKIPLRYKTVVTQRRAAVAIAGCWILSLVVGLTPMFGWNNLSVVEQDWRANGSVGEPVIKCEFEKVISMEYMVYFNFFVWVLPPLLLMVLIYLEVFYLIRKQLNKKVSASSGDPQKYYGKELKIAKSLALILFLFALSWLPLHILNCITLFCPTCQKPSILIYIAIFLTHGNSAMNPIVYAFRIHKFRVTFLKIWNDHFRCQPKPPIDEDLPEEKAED
# EXPERIMENT_NOTES: Adenosine Receptor Binding--A1 Receptor Affinity (RBA1), [3H]-CHA binding, rat whole brain membranes
# STATED_CONDITIONS: 1.0 nM [3H]-CHA, 25° C., 1 h
pIC50: −log10 of the molar value.
VALUE_KIND: pIC50

Sample records with pIC50:
1. OC[C@H]1O[C@@H](n2cnc3c(NCC(c4ccc(F)cc4)c4ccc(F)cc4)ncnc32)[C@H](O)[C@@H]1O
7.80
2. COc1ccc(C(CNc2ncnc3c2ncn3[C@@H]2O[C@H](CO)[C@@H](O)[C@H]2O)c2ccccc2)cc1 (stereo partly drawn)
7.68
3. COC(=O)C(CNc1ncnc2c1ncn2[C@@H]1O[C@H](CO)[C@@H](O)[C@H]1O)(c1ccccc1)c1ccccc1
7.10
4. Nc1nc(NCC(c2ccccc2)c2ccc(F)cc2)c2ncn([C@@H]3O[C@H](CO)[C@@H](O)[C@H]3O)c2n1 (stereo partly drawn)
7.03

a. Nc1nc(NCC(O)(c2ccccc2)c2ccccc2)c2ncn([C@@H]3O[C@H](CO)[C@@H](O)[C@H]3O)c2n1
b. OC[C@H]1O[C@@H](n2cnc3c(NCCCC(c4ccccc4)c4ccccc4)ncnc32)[C@H](O)[C@@H]1O
Which has the higher pIC50, a or b ? Refer to your chosen entry by its label in the reply. a
